# TEST PARAMETERS: Ebola virus entry assay, reporter ratio channel; Channel type: primary unless noted
Activity calls are given as the source filed them.
READOUT TYPE: outcome

compound="O=C(O)CCCCC1CCSS1 (stereo not drawn)" readout_type=outcome observed_measurement=inactive
compound=Oc1ccccc1-c1nnco1 readout_type=outcome observed_measurement=inactive
compound="CC(C)(C)NCC(O)c1ccccc1Cl (stereo not drawn)" readout_type=outcome observed_measurement=inactive
compound=COc1ccc(NS(=O)(=O)c2ccc(N)cc2)nn1 readout_type=outcome observed_measurement=inactive
compound=COC(=O)[C@@H]1[C@H]2C[C@H]3c4[nH]c5ccccc5c4CCN3C[C@@H]2CC[C@@H]1O readout_type=outcome observed_measurement=inactive
compound="NC(CS)C(=O)O (stereo not drawn)" readout_type=outcome observed_measurement=inactive
compound=Cc1ccc(-c2ccccc2C#N)cc1 readout_type=outcome observed_measurement=inactive
compound=C/C(=N\O)[C@@H](C)NCC(C)(C)CN[C@H](C)/C(C)=N/O readout_type=outcome observed_measurement=inactive
compound=Cc1c(NC(C)C)c(=O)n(-c2ccccc2)n1C readout_type=outcome observed_measurement=inactive
compound=O=C1c2ccccc2C(=O)C1C(=O)C(c1ccccc1)c1ccccc1 readout_type=outcome observed_measurement=inactive
compound=CC(C)c1ccc2oc3nc(N)c(C(=O)O)cc3c(=O)c2c1 readout_type=outcome observed_measurement=inactive
compound=NC(N)=NC(=O)Cc1c(Cl)cccc1Cl readout_type=outcome observed_measurement=inactive
compound="CC(C)CCCC(C)NCCC(C)C (stereo not drawn)" readout_type=outcome observed_measurement=inactive

###

# Tested on: Dd2
# ASSAY OVERVIEW: qHTS profiling for inhibitors of Plasmodium falciparum proliferation (AID 504749); also: nearly all actives have a fitted effect of over 60% in size
# TEST PARAMETERS: P. falciparum in erythrocytes, SYBR Green DNA, 72 h; series mostly up to 28.7 µM
Records with an inconclusive call do not appear. Active and inactive are the calls of the source. Calls come from the whole dose curve; as a rule, active = well fitted inhibition curve with a large enough effect; inconclusive = small, poorly fitted or top-dose-only effect; inactive = flat fitted curve, though single readings scatter.
Outcome codes: active, inactive

compound=O=C1c2ccccc2C(=O)C1C(=O)C(c1ccccc1)c1ccccc1 group_label=inactive
compound=NCCc1ccc(O)cc1 group_label=inactive
compound=CNC(C)(C)Cc1ccccc1 group_label=inactive
compound=O=C(O)CCCc1ccc(N(CCCl)CCCl)cc1 group_label=inactive
compound="CN1C(=O)NC(=O)C(C)(C2=CCCCC2)C1=O (stereo not drawn)" group_label=inactive
compound="CN1C(=O)C(O)N=C(c2ccccc2)c2cc(Cl)ccc21 (stereo not drawn)" group_label=inactive
compound="CC(C)(C)NCC(O)c1cc(Cl)c(N)c(C(F)(F)F)c1 (stereo not drawn)" group_label=active
compound=Clc1ccc2c(c1)C(c1ccccc1)=NCc1nncn1-2 group_label=inactive
compound=Clc1ccc(C(c2ccc(Cl)cc2)C(Cl)(Cl)Cl)cc1 group_label=inactive
compound=Cc1ncsc1CCCl group_label=inactive
compound=COP(=S)(OC)Oc1ccc(S(=O)(=O)N(C)C)cc1 group_label=inactive
compound="O=C1Nc2ccc(Cl)cc2C(c2ccccc2)=NC1O (stereo not drawn)" group_label=inactive
compound=C[C@]12CC[C@@H]3c4ccc(OC(=O)N(CCCl)CCCl)cc4CC[C@H]3[C@@H]1CC[C@@H]2O group_label=inactive
compound="O=P1(N(CCCl)CCCl)NCCCO1 (stereo not drawn)" group_label=inactive
compound=O=c1oc2ccccc2c(O)c1Cc1c(O)c2ccccc2oc1=O group_label=inactive
compound=NC(=O)c1cc([N+](=O)[O-])cc([N+](=O)[O-])c1 group_label=inactive
compound=O=C(Nc1ccc(Br)cc1)c1cc(Br)cc(Br)c1O group_label=inactive
compound=Oc1ccc(Cl)cc1 group_label=inactive
compound="NC(=O)CS(=O)C(c1ccccc1)c1ccccc1 (stereo not drawn)" group_label=inactive
compound=CCCC(C)(COC(N)=O)COC(N)=O group_label=inactive
compound=CCCCCCC(=O)CCCCCC/C=C/C[C@@H](O)[C@H](O)[C@@](N)(CO)C(=O)O group_label=inactive
compound=O=c1[nH]oc2c1CCNC2 group_label=inactive
compound=NNc1ccccc1 group_label=inactive
compound=CC(C)NC(C)C group_label=inactive
compound=CCC1(c2ccccc2)C(=O)N(COC)C(=O)N(COC)C1=O group_label=inactive
compound=c1ccc2c(c1)sc1ccccc12 group_label=inactive
compound=CCC(C)(C)c1ccc(O)cc1 group_label=inactive
compound=CC(C)c1cccc(C(C)C)c1O group_label=inactive

###

# ASSAY OVERVIEW: qHTS of pediatric cancer cell lines to identify multiple opportunities for drug repurposing: Primary screen for Rh18 cells (AID 1347102); also: nearly all actives have a fitted effect of over 65% in size
# TEST PARAMETERS: Rh18 rhabdomyosarcoma viability, CellTiter-Glo luminescence, 48 h; series mostly up to 46 µM
Results filed as inconclusive are left out. Activity calls are given as the source filed them. The call rests on the fitted dose curve; in most records, active means well fitted cell-killing curve with a large enough effect; inconclusive means small, poorly fitted or top-dose-only effect; inactive means flat fitted curve, though single readings scatter.
Outcome codes: True (active), False (inactive)

molecule=C[C@]12CC[C@H]3[C@@H](CCC4=CC(=O)CC[C@@H]43)[C@@H]1CC[C@@H]2OC(=O)CCC1CCCCC1 group_label=False
molecule="CC(C)N(CCC(C(N)=O)(c1ccccc1)c1ccccn1)C(C)C (stereo not given)" group_label=False
molecule=CNCC(=O)c1ccc(O)c(O)c1 group_label=False
molecule="COc1cccc2c1C(=O)c1c(O)c3c(c(O)c1C2=O)C[C@@](O)(C(=O)CO)CC3OC1CC(N2CCOC(OC)C2)C(O)C(C)O1 (stereo not given in full)" group_label=True
molecule=CCOP(=S)(OCC)Oc1ccc2c(C)c(Cl)c(=O)oc2c1 group_label=False

###

# System: JCK
# ASSAY OVERVIEW: qHTS profiling for inhibitors of Plasmodium falciparum proliferation (AID 504749); also: nearly all actives have a fitted effect of over 60% in size
# TEST PARAMETERS: P. falciparum in erythrocytes, SYBR Green DNA, 72 h; series mostly up to 28.7 µM
# Procedure: NIH National Institute of Allergy and Infectious Diseases [NIAID] NIH Chemical Genomics Center [NCGC] […] Because mature erythrocytes lack DNA, only Plasmodium-derived DNA is detected. NCGC Assay Protocol Summary: The SYBR Green viability assay was adapted from a method described previously (Plouffe et al., 2008). […] The following morning, fluorescence intensity at 485(14) nm excitation and 535(25) nm emission wavelengths was measured on an EnVision (Perkin Elmer) plate reader. […]
Results filed as inconclusive are left out. Calls of active or inactive are those of the source. Calls come from the whole dose curve; as a rule, active = well fitted inhibition curve with a large enough effect; inconclusive = small, poorly fitted or top-dose-only effect; inactive = flat fitted curve, though single readings scatter.
READOUT TYPE: activity, negative = inhibition

compound=CCC1(c2ccccc2)C(=O)N(COC)C(=O)N(COC)C1=O observed_measurement=inactive
compound=C[C@]12CC[C@@H]3c4ccc(OC(=O)N(CCCl)CCCl)cc4CC[C@H]3[C@@H]1CC[C@@H]2O observed_measurement=inactive
compound="CN1CCC(O)(c2ccc(F)cc2)C(C(=O)c2ccc(F)cc2)C1 (stereo not drawn)" observed_measurement=inactive
compound=Oc1ccc(Cl)cc1 observed_measurement=inactive
compound=COP(=S)(OC)SCN1C(=O)c2ccccc2C1=O observed_measurement=inactive
compound="CC(C)=CC1C(C(=O)OCN2C(=O)C3=C(CCCC3)C2=O)C1(C)C (stereo not drawn)" observed_measurement=inactive
compound="CN1C(=O)C(O)N=C(c2ccccc2)c2cc(Cl)ccc21 (stereo not drawn)" observed_measurement=inactive
compound=CC(C)NC(C)C observed_measurement=inactive
compound=CCC1(CC)C(=O)C=CNC1=O observed_measurement=inactive
compound=Nc1ccc([As](=O)(O)O)cc1 observed_measurement=inactive
compound=O=C(Nc1ccc(Br)cc1)c1cc(Br)cc(Br)c1O observed_measurement=inactive
compound=c1ccc2c(c1)sc1ccccc12 observed_measurement=inactive
compound=CN1C(=O)CC(=O)N(c2ccccc2)c2cc(Cl)ccc21 observed_measurement=inactive

###

# ASSAY OVERVIEW: qHTS for differential inhibitors of proliferation of Plasmodium falciparum line HB3 (AID 1886);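 also: parasites grown with compound for 72 h before SYBR Green readout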
# TEST PARAMETERS: Plasmodium falciparum HB3 proliferation inhibition; series mostly up to 28.7 µM
Results filed as inconclusive are left out. Calls of active or inactive are those of the source. The call rests on the fitted dose curve; in most records, active means well fitted curve in the direction sought with a large enough effect; inconclusive means small, poorly fitted or top-dose-only effect, or another doubt; inactive means no such curve, though single readings can be large or run the other way.
READOUT TYPE: outcome

compound=CC(C)c1cccc(C(C)C)c1O observed_measurement=inactive
compound="O=P1(N(CCCl)CCCl)NCCCO1 (stereo unspecified)" observed_measurement=inactive
compound=C[C@]12CCC(=O)C=C1CC[C@@H]1[C@@H]2CC[C@]2(C)C(=O)CC[C@@H]12 observed_measurement=inactive
compound="CCC1(c2ccc(N)cc2)CCC(=O)NC1=O (stereo unspecified)" observed_measurement=inactive
compound=O=c1[nH]oc2c1CCNC2 observed_measurement=inactive
compound="CN1C(=O)CCS(=O)(=O)C1c1ccc(Cl)cc1 (stereo unspecified)" observed_measurement=inactive

###

# ASSAY OVERVIEW: P-glycoprotein substrates identified in KB-3-1 adenocarcinoma cell line, qHTS therapeutic library screen (AID 1346986); also: nearly all actives have a fitted effect of over 60% in size
# TEST PARAMETERS: KB-3-1 parental cells viability, CellTiter-Glo, 72 h; at 44.5 µM (top of the series) unless noted
Records with an inconclusive call do not appear. Active and inactive are the calls of the source. The call rests on the fitted dose curve; in most records, active means well fitted inhibition curve with a large enough effect; inconclusive means small, poorly fitted or top-dose-only effect; inactive means no such curve, though single readings can be large or run the other way.
READOUT TYPE: outcome

smi=C[C@]12CC[C@@H]3c4ccc(OC(=O)N(CCCl)CCCl)cc4CC[C@H]3[C@@H]1CC[C@@H]2OP(=O)(O)O observed_measurement=inactive
smi=CCCCCN(C)CCC(O)(P(=O)(O)O)P(=O)(O)O observed_measurement=inactive
smi=CC(=O)OCC1=C(C(=O)O)N2C(=O)[C@@H](N)[C@H]2SC1 observed_measurement=inactive

Value source: PubChem BioAssay (NCATS)
